Molecular target: Sgk1 (Homo sapiens)
Test: Enzyme based assay for SGK1 (biotinylated Akt Substrates-2 peptide, Eu3+ Cryptate/XL665 detection)
Format: biochemical
Conditions: 50 μM ATP; read-out: Sgk1 (50 μM ATP)
Method: 1. Enzyme Based Assays for SGK1, SGK2, SGK3, and Akt1 The kinase enzymatic reaction is carried out with a biotinylated Akt Substrates-2 peptide substrate. The phosphorylated substrate is then detected using a specific anti-phospho peptide antibody which is coupled with Eu^3+ Cryptate and XL665 conjugated with streptavidin. Exemplary Assay Conditions […]
Measured property: IC50 (nM)

Some solved entries appear below for comparison.
| Compound | Measured property | Reported result |
| --- | --- | --- |
| COc1ccc(F)c(S(=O)(=O)Nc2ccc(-c3cc(OCCN(C)C)c4c(N)n[nH]c4n3)cc2)c1 | IC50 | 45 |
| COc1ccc(F)c(S(=O)(=O)Nc2ccc(-c3cc4[nH]ncc4cn3)cc2)c1 | IC50 | 160 |
| COc1ccc(F)c(S(=O)(=O)Nc2ccc(-c3cc(OC)c4c(N)n[nH]c4c3)cn2)c1 | IC50 | 29.7 |
| COc1ccc(F)c(S(=O)(=O)Nc2ccc(-c3cc(OC)c4c(N)n[nH]c4n3)cc2)c1 | IC50 | 17.1 |

[A] COc1ccc(F)c(S(=O)(=O)Nc2ccc(-c3cc(O[C@@H]4CCOC4)c4c(N)n[nH]c4c3)nc2)c1
[B] COc1ccc(F)c(S(=O)(=O)Nc2cnc(-c3ccc4c(N)n[nH]c4c3)nc2)c1
[C] Nc1n[nH]c2nc(-c3ccc(NS(=O)(=O)c4cc(Cl)ccc4F)cc3)ccc12
[D] COCCOc1cc(-c2ccc(NS(=O)(=O)c3cc(OC)ccc3F)cc2)cc2[nH]nc(N)c12
[E] COc1ccc(F)c(S(=O)(=O)Nc2ccc(-c3cc(O[C@H]4CCOC4)c4c(N)n[nH]c4c3)nc2)c1
Asked: List these items ordered by IC50, big to small. Quick reminder: the answer is the labels in the order asked.
Given back: C, E, D, B, A

[1] COc1ccc(F)c(S(=O)(=O)Nc2ccc(-c3cc(C)c4c(N)n[nH]c4n3)cc2)c1 [drawing 111]
[2] CNCCOc1cc(-c2ccc(NS(=O)(=O)c3cc(OC)ccc3F)cc2)cc2[nH]nc(N)c12
Asked: In the pair 1 and 2 , the larger recorded IC50 belongs to which? Kindly give the label for the entry you pick.
Given back: 2

[a] Cc1n[nH]c2nc(-c3ccc(NS(=O)(=O)c4cc(Cl)ccc4F)cc3)ccc12
[b] COc1ccc(F)c(S(=O)(=O)Nc2cnc(-c3cc(OC)c4c(N)n[nH]c4c3)nc2)c1
[c] COc1ccc(Cl)c(S(=O)(=O)Nc2ccc(-c3cc4[nH]ncc4c(OCC4CNCCO4)n3)cc2)c1 (stereo not drawn)
[d] COc1ccc(F)c(S(=O)(=O)Nc2ccc(-c3cc4[nH]ncc4c(OC)n3)cc2)c1
Asked: List these items ordered by IC50, big to small. Quick reminder: the answer is the labels in the order asked.
Given back: d, b, a, c

---

Assay: PK study in male ICR mice, intravenous and oral administration, plasma concentration
Format: in vivo
Details: mouse, plasma, PO (20 mg/kg)
Measured property: AUC(0-inf) (µg·h/mL)
Reply with just the number (in µg·h/mL).

Asked: Requested field: AUC(0-inf). Item: COc1ccc(F)c(S(=O)(=O)Nc2ccc(-c3ccc4c(N)n[nH]c4c3)nc2)c1
Given back: 1530

---

Target: Sgk1 (Homo sapiens, UniProt O00141)
Sequence (O00141 whole entry): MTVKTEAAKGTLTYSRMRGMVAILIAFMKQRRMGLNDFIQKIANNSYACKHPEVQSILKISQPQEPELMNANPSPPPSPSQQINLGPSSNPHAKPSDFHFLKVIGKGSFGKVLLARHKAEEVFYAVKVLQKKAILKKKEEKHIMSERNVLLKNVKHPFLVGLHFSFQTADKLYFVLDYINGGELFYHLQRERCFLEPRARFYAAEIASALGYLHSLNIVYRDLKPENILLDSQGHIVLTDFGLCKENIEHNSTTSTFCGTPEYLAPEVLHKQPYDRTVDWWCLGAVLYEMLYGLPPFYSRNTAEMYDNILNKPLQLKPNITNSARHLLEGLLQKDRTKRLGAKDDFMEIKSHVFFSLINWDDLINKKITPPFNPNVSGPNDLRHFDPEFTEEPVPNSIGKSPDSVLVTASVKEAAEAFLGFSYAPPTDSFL
Test: Enzyme based assay for SGK1 (biotinylated Akt Substrates-2 peptide, Eu3+ Cryptate/XL665 detection)
Type: biochemical
Conditions: 1 mM ATP; read-out: Sgk1 (1 mM ATP)
Measured property: IC50 (nM)

Some solved entries appear below for comparison.
| Compound | Experimental system | IC50, nM |
| --- | --- | --- |
| CCOc1cc(-c2ccc(NS(=O)(=O)c3cc(OC)ccc3F)cn2)cc2[nH]nc(N)c12 | Sgk1 (Homo sapiens, UniProt O00141) | 110 |
| COc1ccc(F)c(S(=O)(=O)Nc2ccc(-c3ccc4c(N)n[nH]c4c3)nc2)c1 [drawing 151] | Sgk1 (Homo sapiens, UniProt O00141) | 158 |
| COc1ccc(F)c(S(=O)(=O)Nc2ccc(-c3cc(O[C@@H]4CCOC4)c4c(N)n[nH]c4c3)nc2)c1 | Sgk1 (Homo sapiens, UniProt O00141) | 10.3 |

[a] CCOc1cc(-c2ccc(NS(=O)(=O)c3cc(OC)ccc3F)cc2)cc2[nH]nc(N)c12
[b] COc1ccc(F)c(S(=O)(=O)Nc2ccc(-c3ccc4cn[nH]c4c3)nc2)c1
Asked: Of a and b , which carries the smaller reported IC50 figure? Kindly give the label for the entry you pick.
Given back: a

---

Molecular target: UniProtKB O00141
Assay: Enzyme based assay for SGK1 (biotinylated Akt Substrates-2 peptide, Eu3+ Cryptate/XL665 detection)
Assay type: biochemical
Conditions: 1 mM ATP; read-out: Sgk1 (1 mM ATP)
Protocol: 1. Enzyme Based Assays for SGK1, SGK2, SGK3, and Akt1 The kinase enzymatic reaction is carried out with a biotinylated Akt Substrates-2 peptide substrate. The phosphorylated substrate is then detected using a specific anti-phospho peptide antibody which is coupled with Eu^3+ Cryptate and XL665 conjugated with streptavidin. Exemplary Assay Conditions […]
Measured property: IC50 (nM)

Some solved entries appear below for comparison.
| Compound | Unit annotation | IC50 |
| --- | --- | --- |
| COc1ccc(F)c(S(=O)(=O)Nc2ccc(-c3cc4[nH]nc(N)c4c(C)n3)cc2)c1 [drawing 110] | nM | 8.5 |
| COc1ccc(F)c(S(=O)(=O)Nc2ccc(-c3cc(OC(C)C)c4c(N)n[nH]c4c3)cc2)c1 | nM | 58.8 |
| COc1ccc(F)c(S(=O)(=O)Nc2ccc(-c3cc4c5c(n[nH]c5c3)NC(=O)C(C)(C)O4)cc2)c1 | nM | 344 |

[1] COc1ccc(Cl)c(S(=O)(=O)Nc2ccc(-c3ccc4c(N)n[nH]c4n3)cc2)c1
[2] COc1ccc(F)c(S(=O)(=O)Nc2ccc(-c3cc(OC)c4c(N)n[nH]c4c3)cc2)c1 [drawing 108]
[3] COc1ccc(F)c(S(=O)(=O)Nc2ccc(-c3cc(O[C@H]4CCOC4)c4c(N)n[nH]c4c3)nc2)c1
Asked: List these items ordered by IC50, big to small. Quick reminder: the answer is the labels in the order asked.
Given back: 3, 1, 2

---

Target: Sgk1 (Homo sapiens, UniProt O00141)
Test: Enzyme based assay for SGK1 (biotinylated Akt Substrates-2 peptide, Eu3+ Cryptate/XL665 detection)
Type: biochemical
Conditions: 1 mM ATP; read-out: Sgk1 (1 mM ATP)
Measured property: IC50 (nM)

Some solved entries appear below for comparison.
| Molecule | Experimental system | Measured property | Unit annotation | Reported result |
| --- | --- | --- | --- | --- |
| COc1ccc(F)c(S(=O)(=O)Nc2ccc(-c3cc(OC4CCOC4)c4c(N)n[nH]c4n3)cc2)c1 (centres unmarked) | Sgk1 (Homo sapiens, UniProt O00141) | IC50 | nM | 8.9 |
| COCCOc1cc(-c2ccc(NS(=O)(=O)c3cc(OC)ccc3F)cc2)nc2[nH]nc(N)c12 | Sgk1 (Homo sapiens, UniProt O00141) | IC50 | nM | 10.4 |

[A] COc1ccc(F)c(S(=O)(=O)Nc2ccc(-c3cc(OC)c4c(N)n[nH]c4c3)nc2)c1
[B] COc1ccc(F)c(S(=O)(=O)Nc2ccc(-c3cc(C)c4c(N)n[nH]c4c3)cc2)c1
[C] COc1ccc(F)c(S(=O)(=O)Nc2ccc(-c3cnc4c(N)n[nH]c4c3)nc2)c1
Asked: List these items ordered by IC50, big to small. Quick reminder: the answer is the labels in the order asked.
Given back: C, B, A
(C: 208 nM, B: 49.9 nM, A: 11.1 nM)

---

Target: Sgk2 (Homo sapiens, UniProt Q9HBY8)
Sequence (Q9HBY8 whole entry): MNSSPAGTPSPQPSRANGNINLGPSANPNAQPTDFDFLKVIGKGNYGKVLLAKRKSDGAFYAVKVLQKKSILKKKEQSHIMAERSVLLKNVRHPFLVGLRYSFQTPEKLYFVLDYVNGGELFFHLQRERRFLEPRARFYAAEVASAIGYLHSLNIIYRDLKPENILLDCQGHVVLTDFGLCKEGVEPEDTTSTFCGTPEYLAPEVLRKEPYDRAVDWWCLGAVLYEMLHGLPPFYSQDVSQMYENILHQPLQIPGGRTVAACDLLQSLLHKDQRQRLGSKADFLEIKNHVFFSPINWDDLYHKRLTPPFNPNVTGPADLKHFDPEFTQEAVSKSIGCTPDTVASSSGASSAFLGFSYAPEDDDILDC
Experiment: Enzyme based assay for SGK2 (biotinylated Akt Substrates-2 peptide, Eu3+ Cryptate/XL665 detection)
Type: biochemical
Conditions: 50 μM ATP; read-out: Sgk2 (50 μM ATP)
Measured property: IC50 (nM)

Some solved entries appear below for comparison.
| Compound | IC50 (nM) |
| --- | --- |
| COc1ccc(F)c(S(=O)(=O)Nc2ccc(-c3cc4[nH]ncc4c(OC)n3)cc2)c1 | 38.5 |
| COc1ccc(F)c(S(=O)(=O)Nc2ccc(-c3cc(OCCN(C)C)c4c(N)n[nH]c4n3)cc2)c1 | 4.2 |
| COc1ccc(F)c(S(=O)(=O)Nc2ccc(-c3cc(O[C@H]4CCOC4)c4c(N)n[nH]c4c3)cc2)c1 | 10.3 |
| COc1ccc(F)c(S(=O)(=O)Nc2cnc(-c3cc(OC)c4c(N)n[nH]c4c3)nc2)c1 | 5.4 |
| COc1ccc(Cl)c(S(=O)(=O)Nc2ccc(-c3ccc4c(N)n[nH]c4n3)cc2)c1 | 2.1 |

[A] COc1ccc(Cl)c(NS(=O)(=O)c2ccc(-c3ccc4c(N)n[nH]c4n3)cc2)c1
[B] COc1ccc(F)c(S(=O)(=O)Nc2cnc(-c3ccc4c(N)n[nH]c4c3)nc2)c1
Asked: Of A and B , which carries the smaller reported IC50 figure? Kindly give the label for the entry you pick.
Given back: B
(B: 3.7 nM, A: 109 nM)

The reported measurements were obtained from patent US11236083B2.
